test system: COLO 205 colon; assay: NCI tumour cell line growth inhibition, 48 h
Provide the reported TGI of each item.

Please fill in: TGI reported for O=C(/C(=C\C(=O)c1cccs1)c1ccsc1)c1ccc(Br)cc1 = > 100 µM

Please fill in: TGI reported for Cc1ccc(C(=O)N/N=C(\N=Nc2cccc(Cl)c2)c2ccc(N(CCC#N)CCC#N)cc2C)cc1 = > 100 µM

Please fill in: TGI reported for Nc1ncnc2c1ncn2C1CCC(COS(N)(=O)=O)C1 (stereo unspecified) = > 100 µM

Please fill in: TGI reported for N=C1N(S(=O)(=O)c2ccccc2)[C@@H](Cc2ccccc2)[C@H](c2ccccc2)C1(c1ccccc1)c1ccccc1 = > 100 µM

Please fill in: TGI reported for c1ccc(CCN2CCc3[nH]c4ccccc4c3C2)cc1 = > 10 µM

Please fill in: TGI reported for C=C(CCC(C)C1CCC2C3=C(C(=O)CC21C)C1(C)CCC(=O)[C@@H](C)C1CC3=O)C(C)C(=O)O (stereo partly specified) = > 100 µM

The origin of these recorded values is PubChem BioAssay (NCI).
